# experimentalSystem: Neuronal acetylcholine receptor; alpha4/beta2 (Homo sapiens, UniProt P17787+P43681)
# assayNotes: Partial agonist activity at human high sensitive alpha4beta2 nAChR expressed in SH-EP1 cells assessed as 86Rb+ ion efflux by flip-plate technique relative to sazetidine-A
# Format: functional, cell-based
propertyLabel: Efficacy (%)
Quick note: give the figure in %, leave out the unit.

Prompt: Input O=C(OCC[C@H]1C[C@@H]1c1cncc(OC[C@@H]2CCN2)c1)N1CCCC1 , output reported Efficacy.
Response: 69

Prompt: Input CNC(=O)OCC[C@H]1C[C@@H]1c1cncc(OC[C@@H]2CCN2)c1 , output reported Efficacy.
Response: 77

Prompt: Input O=C(Nc1ccccc1)OCC[C@H]1C[C@@H]1c1cncc(OC[C@@H]2CCN2)c1 , output reported Efficacy.
Response: 78

Prompt: Input CN(C)C(=O)OCC[C@H]1C[C@@H]1c1cncc(OC[C@@H]2CCN2)c1 , output reported Efficacy.
Response: 71

###

# Species: Rattus norvegicus
# assayNotes: Selectivity ratio of Ki for rat alpha3beta4 to Ki for rat alpha4beta2
I'd appreciate it if you could supply Ratio Ki values for the items below.
Just the number, please, no unit after it.

Prompt: Input OCCCCC#Cc1cncc(OC[C@@H]2CCN2)c1 , output reported Ratio Ki.
Response: 24000

Prompt: Input O=C(Nc1ccccc1)OCC[C@H]1C[C@@H]1c1cncc(OC[C@@H]2CCN2)c1 , output reported Ratio Ki.
Response: 14800

Prompt: Input OCC[C@H]1C[C@@H]1c1cncc(OC[C@@H]2CCN2)c1 , output reported Ratio Ki.
Response: 65200

Prompt: Input OCC[C@@H]1C[C@H]1c1cncc(OC[C@@H]2CCN2)c1 , output reported Ratio Ki.
Response: 1500

###

# experimentalSystem: Acetylcholine receptor; alpha1/beta1/delta/gamma (Homo sapiens) (UniProt P02708+P07510+P11230+Q07001)
# assayNotes: Antagonist activity at human alpha1beta1gammadelta nAChR expressed in TE671/RD cells at 10 uM by 86Rb+ flux assay
# Format: functional, cell-based
Active and inactive are the calls of the source. The rule behind the calls is not given here.
propertyLabel: Activity

Example results:
CN1CCC[C@H]1c1cccnc1 : inactive
CNC(=O)OCC[C@H]1C[C@@H]1c1cncc(OC[C@@H]2CCN2)c1 : inactive
OCC[C@H]1C[C@@H]1c1cncc(OC[C@@H]2CCN2)c1 : inactive
O=C(Nc1ccccc1)OCC[C@H]1C[C@@H]1c1cncc(OC[C@@H]2CCN2)c1 : inactive
COCC[C@H]1C[C@@H]1c1cncc(OC[C@@H]2CCN2)c1 : inactive
O=C(OCC[C@H]1C[C@@H]1c1cncc(OC[C@@H]2CCN2)c1)N1CCCC1 : inactive

Prompt: Input OCCCCC#Cc1cncc(OC[C@@H]2CCN2)c1 , output reported Activity.
Response: inactive

Prompt: Input O=C(NC1CC1)OCC[C@H]1C[C@@H]1c1cncc(OC[C@@H]2CCN2)c1 , output reported Activity.
Response: inactive

Prompt: Input CN(C)C(=O)OCC[C@H]1C[C@@H]1c1cncc(OC[C@@H]2CCN2)c1 , output reported Activity.
Response: inactive

Prompt: Input OCC[C@@H]1C[C@H]1c1cncc(OC[C@@H]2CCN2)c1 , output reported Activity.
Response: inactive

Prompt: Input COCC[C@@H]1C[C@H]1c1cncc(OC[C@@H]2CCN2)c1 , output reported Activity.
Response: inactive
